Source of measurements: patent US6596863B2

target-system: human MMP-9 (gelatinase B) (Homo sapiens)
Construct: endogenous in cells; host or cells: HT1080 human fibrosarcoma cells (ATCC CCL-121), PMA-stimulated; enzyme purified from the culture supernatant
Sequence (P14780 107-707 limits assumed): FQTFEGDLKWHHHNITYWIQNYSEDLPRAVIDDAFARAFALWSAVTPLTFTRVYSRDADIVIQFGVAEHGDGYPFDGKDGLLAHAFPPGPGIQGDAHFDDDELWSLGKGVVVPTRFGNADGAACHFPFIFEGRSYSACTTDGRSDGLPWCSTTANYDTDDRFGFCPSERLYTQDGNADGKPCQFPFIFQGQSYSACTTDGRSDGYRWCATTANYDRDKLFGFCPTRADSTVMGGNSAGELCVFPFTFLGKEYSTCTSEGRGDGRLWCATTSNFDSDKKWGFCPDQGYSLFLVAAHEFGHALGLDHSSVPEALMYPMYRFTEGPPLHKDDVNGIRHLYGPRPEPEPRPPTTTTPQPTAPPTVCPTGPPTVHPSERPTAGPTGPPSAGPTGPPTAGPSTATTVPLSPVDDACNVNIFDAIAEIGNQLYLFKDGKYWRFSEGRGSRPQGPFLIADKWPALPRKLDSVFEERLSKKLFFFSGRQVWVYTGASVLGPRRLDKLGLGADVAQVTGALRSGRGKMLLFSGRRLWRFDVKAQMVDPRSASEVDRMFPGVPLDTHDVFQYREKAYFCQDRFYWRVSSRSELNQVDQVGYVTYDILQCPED
assay-procedure: Inhibition activity against human MMP-9 (gelatinase B), fluorescent peptide substrate
Type: biochemical
experimental-conditions: compounds of the formula (I); average of 1st and 2nd (or single measurement); read-out: MMP-9 inhibition activities IC50, Average
Procedure: Human MMP-9 (gelatinase B) was purified by the following method from a culture supernatant of HT1080 cells (human fibrosarcoma). […] The inhibition activity against human MMP-9 was measured by the following method in accordance with the method by C. […]
I'd appreciate it if you marked entries yes (1) when IC50 is lower than 30 µM and no (0) when it is not.

q: # TODO verify IC50 < 30 µM strictly for this compound: NNC(=C[N+](=O)[O-])NCc1ccccn1 [compound 79]
a: no (0)

q: What would you report for CNC(=C[N+](=O)[O-])NN=C(C)c1cccnc1 [compound 34] ?
a: yes (1)

q: Queued: CNC(=C[N+](=O)[O-])NN=Cc1ccc(Cl)cc1 [compound 136]
a: yes (1)

q: CNC(=C[N+](=O)[O-])NNc1ccc([N+](=O)[O-])cc1 [compound 13] ?
a: yes (1)

q: Similarly, CNC(=C[N+](=O)[O-])NNc1cc(C(F)(F)F)cc(Oc2ccccc2)n1 [compound 126] ?
a: yes (1)

q: Consider next the compound CCOC(=O)Cc1ccc(NC(=C[N+](=O)[O-])NN)cc1 [compound 73] in the same way.
a: no (0)

q: Same lookup for CNC(=C[N+](=O)[O-])NN=Cc1ccc([N+](=O)[O-])cc1 [compound 138] , please.
a: yes (1)

q: Record: CCCCCCCCNC(=C[N+](=O)[O-])NN [compound 46]
a: no (0)

q: // query: CNC(=C[N+](=O)[O-])NNc1ccc(OC)cc1 [compound 17]
a: no (0)

q: Follow-up item: CNC(=C[N+](=O)[O-])NNc1cc(C(F)(F)F)cc(Cl)n1 [Compound No. 37]
a: yes (1)

q: // next record CNC(=C[N+](=O)[O-])NNc1ccccc1[N+](=O)[O-] [compound 11]
a: no (0)

q: Can you handle CCOCCOc1cc(C(F)(F)F)cc(NNC(=C[N+](=O)[O-])NS(C)(=O)=O)n1 [Compound No. 164] next?
a: yes (1)

---

For each of the compounds below, state its melting point.

q: Dear colleague, I am looking for the recorded melting point of the following compound: `CNC(=C[N+](=O)[O-])NN=C(C)c1cccs1`
a: 165 °C (dec.)

q: Ok, now `CNC(=C[N+](=O)[O-])NN=Cc1ccc2c(c1)OCO2`
a: 180 °C (dec.)

q: Next entry: `CNC(=C[N+](=O)[O-])NNc1ccnc2cc(Cl)ccc12`
a: 210 °C (dec.)

q: Another compound: `NNC(=C[N+](=O)[O-])NCc1ccccn1`
a: 190 °C (dec.)

q: What would you report for `CNC(=C[N+](=O)[O-])NN=C(C)OC` ?
a: 159 °C (dec.)

q: Same question, `CNC(=C[N+](=O)[O-])NN=Cc1ccc2ccccc2c1` this time
a: 190 °C (dec.)

q: Check `NNC(=C[N+](=O)[O-])NCc1ccncc1` too.
a: 176 °C (dec.)

q: What do you get for `NNC(=C[N+](=O)[O-])NC1CCCC1` ?
a: 192 °C (dec.)

q: Cool, now `CNC(=C[N+](=O)[O-])NNc1cc(C(F)(F)F)cc(OCCN(C)C)n1`
a: 125 to 126 °C (dec.)
